- testTarget: Death-associated protein kinase 1 (Homo sapiens) (UniProt P53355);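 note: reported figure is the mean inhibition of DAPK1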
- Sequence (P53355 whole entry, looked up): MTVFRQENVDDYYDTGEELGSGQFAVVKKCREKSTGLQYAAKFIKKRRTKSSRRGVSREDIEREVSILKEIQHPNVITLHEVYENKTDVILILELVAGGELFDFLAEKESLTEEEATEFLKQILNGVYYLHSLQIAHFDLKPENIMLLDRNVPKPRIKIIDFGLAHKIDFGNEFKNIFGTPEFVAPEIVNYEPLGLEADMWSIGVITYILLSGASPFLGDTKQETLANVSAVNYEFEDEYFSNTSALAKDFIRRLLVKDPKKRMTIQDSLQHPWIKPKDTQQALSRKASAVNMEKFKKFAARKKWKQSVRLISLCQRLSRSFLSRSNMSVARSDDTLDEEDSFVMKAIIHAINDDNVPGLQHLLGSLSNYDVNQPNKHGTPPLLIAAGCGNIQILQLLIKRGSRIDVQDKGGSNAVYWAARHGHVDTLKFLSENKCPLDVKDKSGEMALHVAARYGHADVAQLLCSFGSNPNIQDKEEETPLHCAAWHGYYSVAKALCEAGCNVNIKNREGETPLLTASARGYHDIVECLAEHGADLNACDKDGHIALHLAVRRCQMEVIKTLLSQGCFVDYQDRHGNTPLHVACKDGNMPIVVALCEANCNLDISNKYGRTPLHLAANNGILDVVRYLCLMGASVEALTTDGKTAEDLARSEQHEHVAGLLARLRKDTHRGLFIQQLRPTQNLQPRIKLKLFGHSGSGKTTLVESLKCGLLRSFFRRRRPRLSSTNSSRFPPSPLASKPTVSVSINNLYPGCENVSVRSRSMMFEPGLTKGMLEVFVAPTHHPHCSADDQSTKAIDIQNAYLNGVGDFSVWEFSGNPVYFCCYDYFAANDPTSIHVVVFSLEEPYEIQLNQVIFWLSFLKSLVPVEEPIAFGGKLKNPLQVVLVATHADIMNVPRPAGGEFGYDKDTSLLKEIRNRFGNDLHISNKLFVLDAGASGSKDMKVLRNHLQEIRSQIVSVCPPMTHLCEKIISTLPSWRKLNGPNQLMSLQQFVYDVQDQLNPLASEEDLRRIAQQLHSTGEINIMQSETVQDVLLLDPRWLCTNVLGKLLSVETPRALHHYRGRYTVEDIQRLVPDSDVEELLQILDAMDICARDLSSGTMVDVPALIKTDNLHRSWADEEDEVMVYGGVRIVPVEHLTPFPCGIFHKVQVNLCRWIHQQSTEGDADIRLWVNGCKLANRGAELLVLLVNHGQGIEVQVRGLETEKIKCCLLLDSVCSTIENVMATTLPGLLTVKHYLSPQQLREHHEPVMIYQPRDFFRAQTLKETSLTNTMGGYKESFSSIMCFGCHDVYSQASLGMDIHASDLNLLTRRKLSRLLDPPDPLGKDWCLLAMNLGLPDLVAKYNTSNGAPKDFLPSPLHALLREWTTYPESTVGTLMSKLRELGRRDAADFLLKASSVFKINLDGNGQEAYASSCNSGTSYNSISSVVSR
- conditionSet: at 0.1 µM
Field: inhibition. Provide a value for each of the compounds that follow.
One number for each entry, in %.

- itemSmiles: "COc1ccc(-c2ccncc2)cc1C(N)=O"
  readingUnit: "%"
  dataValue: 14
- itemSmiles: "CCn1c(-c2nonc2N)nc2c(C#CC(C)(C)O)nc(CN3CCCC3)cc21"
  readingUnit: "%"
  dataValue: 0.05
- itemSmiles: "O=C1NC(=O)C(c2ccc(Cl)cc2)=C1Nc1ccc(Cl)c(C(=O)O)c1"
  readingUnit: "%"
  dataValue: -1.53

I'm hoping you can list inhibition for every compound here, please.
1. O=C1NC(=O)C(c2ccccc2Cl)=C1Nc1cccc(O)c1
2. Cc1cc(O)cc(C)c1/C=C/c1cncc(-c2nn[nH]n2)c1
3. CS(=O)(=O)CCN(CC#N)Cc1ccc(-c2ccc3ncnc(Nc4ccc(OCc5cccc(F)c5)c(Cl)c4)c3c2)o1
4. NC(=O)c1ccc(-c2nc(-c3ccccn3)c(-c3ccc4c(c3)OCO4)[nH]2)cc1
5. O=C1NC(=O)C(c2cccc(Cl)c2)=C1Nc1ccc(O)c(Cl)c1
6. COc1cc2ncn(-c3cc(OCc4ccccc4C(F)(F)F)c(C(N)=O)s3)c2cc1OC

[3.2, 3.16, -0.47, 2.4, 1.29, 4.32]

Lab note: COc1ccc(COc2ccc(Cc3cnc(N)nc3N)cc2OC)cc1 gave inhibition of 8.9

###

- testTarget: Serine/threonine-protein kinase TBK1 (Homo sapiens) (UniProt Q9UHD2);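 note: values are the mean TBK1 inhibition, taken from the GSK PKIS screening data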
- Sequence (whole entry): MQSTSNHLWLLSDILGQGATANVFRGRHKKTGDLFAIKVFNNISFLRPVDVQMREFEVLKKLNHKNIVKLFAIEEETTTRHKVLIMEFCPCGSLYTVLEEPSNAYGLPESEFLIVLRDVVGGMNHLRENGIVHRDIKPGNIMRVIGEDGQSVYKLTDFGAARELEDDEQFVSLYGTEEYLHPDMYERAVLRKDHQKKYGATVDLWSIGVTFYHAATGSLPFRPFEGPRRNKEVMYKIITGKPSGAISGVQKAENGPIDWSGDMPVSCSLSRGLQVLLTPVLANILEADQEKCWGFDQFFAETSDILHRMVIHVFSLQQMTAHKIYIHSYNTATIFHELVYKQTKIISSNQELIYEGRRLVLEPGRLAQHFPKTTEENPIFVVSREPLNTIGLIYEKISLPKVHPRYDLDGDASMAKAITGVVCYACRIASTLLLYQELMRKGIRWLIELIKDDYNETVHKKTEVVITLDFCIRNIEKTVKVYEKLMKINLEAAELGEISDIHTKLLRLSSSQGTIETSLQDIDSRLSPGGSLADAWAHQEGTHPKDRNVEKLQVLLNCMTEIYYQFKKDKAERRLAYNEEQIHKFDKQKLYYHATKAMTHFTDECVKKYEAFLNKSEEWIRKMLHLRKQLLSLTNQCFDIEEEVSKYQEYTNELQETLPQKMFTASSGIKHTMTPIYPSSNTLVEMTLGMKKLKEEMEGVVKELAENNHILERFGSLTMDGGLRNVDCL
- conditionSet: at 0.1 µM
Give measured inhibition for each item. Keep answers brief.
One number for each entry, in %.

Known results for compounds:
- itemSmiles: "CCn1c(-c2nonc2N)nc2cncc(C(=O)N3CC[C@H](N)C3)c21"
  testTarget: "Serine/threonine-protein kinase TBK1 (Homo sapiens) (UniProt Q9UHD2)"
  inhibition (%): 3.11
- itemSmiles: "Cc1cc(O)cc(C)c1/C=C/c1cncc(-c2nn[nH]n2)c1"
  testTarget: "Serine/threonine-protein kinase TBK1 (Homo sapiens) (UniProt Q9UHD2)"
  inhibition (%): 1.57
- itemSmiles: "CS(=O)(=O)CCN(CC#N)Cc1ccc(-c2ccc3ncnc(Nc4ccc(OCc5cccc(F)c5)c(Cl)c4)c3c2)o1"
  testTarget: "Serine/threonine-protein kinase TBK1 (Homo sapiens) (UniProt Q9UHD2)"
  inhibition (%): 0.72

Your task in this section: give inhibition for each listed record.
1. CS(=O)(=O)CCNCc1ccc(-c2ccc3ncnc(Nc4ccc(OCc5ccccc5)c(Cl)c4)c3c2)o1
2. CS(=O)(=O)CCNCc1ccc(-c2ccc3ncnc(Nc4ccc(OCc5cccc(F)c5)c(C(F)(F)F)c4)c3c2)o1
3. Cc1nn(C)c2cc(N(C)c3ccnc(Nc4cccc(S(N)(=O)=O)c4)n3)ccc12
4. CCCN1CCC(Oc2cc(Nc3nc(Nc4cccc(F)c4C(N)=O)c4cc[nH]c4n3)c(OC)cc2Cl)CC1
5. CS(=O)(=O)Nc1ccc(N/C=C2\C(=O)Nc3ccccc32)cc1
6. COc1cc2ncn(-c3cc(OCc4ccccc4C(F)(F)F)c(C(N)=O)s3)c2cc1OC

[0.47, 1.68, 2.88, -0.35, 0.52, 3.59]

###

Please go through the items and note down their inhibition.
- Tested on: Tyrosine-protein kinase ABL1 (Homo sapiens), P00519 [T315I]
- conditionSet: at 0.1 µM
Give bare numbers, in %.

- molecule: "COc1cc2ncn(-c3cc(O[C@@H](C)c4ccccc4Cl)c(C(N)=O)s3)c2cc1OC"
  measuredProperty: "inhibition"
  dataValue: 3.45
- molecule: "CCn1c(-c2nonc2N)nc2c(C#CC(C)(C)O)nc(CN3CCCC3)cc21"
  measuredProperty: "inhibition"
  dataValue: -0.43
- molecule: "Nc1ncnc2occ(-c3ccc(NC(=O)Nc4cc(C(F)(F)F)cc(C(F)(F)F)c4)cc3)c12"
  measuredProperty: "inhibition"
  dataValue: 42.5
- molecule: "O=C1NC(=O)C(c2ccccc2Cl)=C1Nc1cccc(O)c1"
  measuredProperty: "inhibition"
  dataValue: 3.52

Answer for every listed entry: what is its inhibition? The entries follow.
1. COc1cc2ncn(-c3cc(OCc4ccccc4C(F)(F)F)c(C(N)=O)s3)c2cc1OC
2. Nc1nc(-c2ccc3c(c2)C(=Cc2cc(Br)c(O)c(Br)c2)C(=O)N3)cs1

1: 3.84; 2: -0.15

Dear colleague, could you send me inhibition for each of the items below? Thanks.
1. CCCN1CCC=C(c2ccc(Nc3nc(Nc4ccccc4C(N)=O)c4cc[nH]c4n3)c(C)c2)C1
2. CC1=C(C(=O)Nc2ccc3[nH]ncc3c2)C(c2ccc3ccccc3c2)CC(=O)N1 (stereo not given)
3. COc1ccc(COc2ccc(Cc3cnc(N)nc3N)cc2OC)cc1
4. COC(=O)Nc1nc2cc(Oc3ccc(NC(=O)Nc4cccc(C(=O)O)c4)cc3)ccc2[nH]1

1.37
5.08
-0.36
2.13

###

- testTarget: Serine/threonine-protein kinase Chk1 (Homo sapiens) (UniProt O14757);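 note: reported figure is the mean percent inhibition of CHEK1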
- Sequence (O14757 whole entry): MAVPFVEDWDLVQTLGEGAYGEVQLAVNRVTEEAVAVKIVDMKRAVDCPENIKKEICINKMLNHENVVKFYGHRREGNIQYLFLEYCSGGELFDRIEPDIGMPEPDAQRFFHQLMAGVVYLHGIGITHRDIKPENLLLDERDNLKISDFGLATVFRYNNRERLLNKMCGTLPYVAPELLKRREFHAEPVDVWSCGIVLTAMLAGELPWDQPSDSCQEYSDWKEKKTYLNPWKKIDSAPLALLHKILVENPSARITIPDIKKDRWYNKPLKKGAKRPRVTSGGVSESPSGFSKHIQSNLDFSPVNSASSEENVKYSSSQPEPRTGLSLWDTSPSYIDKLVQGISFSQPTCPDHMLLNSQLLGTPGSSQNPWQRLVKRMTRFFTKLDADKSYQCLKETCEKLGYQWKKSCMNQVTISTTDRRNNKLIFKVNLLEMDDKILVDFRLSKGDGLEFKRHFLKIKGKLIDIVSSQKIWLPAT
- conditionSet: at 0.1 µM
Please respond with reported inhibition for every item in the list.

Hi! Can you tell me inhibition for each of these molecules?
1. CS(=O)(=O)CCN(CC#N)Cc1ccc(-c2ccc3ncnc(Nc4ccc(OCc5cccc(F)c5)c(Cl)c4)c3c2)o1
2. CS(=O)(=O)CCNCc1ccc(-c2ccc3ncnc(Nc4ccc(OCc5cccc(F)c5)c(C(F)(F)F)c4)c3c2)o1

1: 0.28%; 2: 8.99%

Hey, can you go through the list below and give me inhibition for every item?
1. Nc1ncnc2occ(-c3ccc(NC(=O)Nc4cccc(C(F)(F)F)c4)cc3)c12
2. COc1cc2ncn(-c3cc(O[C@@H](C)c4ccccc4Cl)c(C(N)=O)s3)c2cc1OC

1: 6.67%; 2: 9.31%

###

- testTarget: Phosphorylase b kinase gamma catalytic chain, liver/testis isoform (Homo sapiens) (UniProt P15735);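 note: reported value is the mean inhibition of PHKG2 from the GSK_PKIS screening set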
- Sequence (P15735 whole entry, canonical isoform): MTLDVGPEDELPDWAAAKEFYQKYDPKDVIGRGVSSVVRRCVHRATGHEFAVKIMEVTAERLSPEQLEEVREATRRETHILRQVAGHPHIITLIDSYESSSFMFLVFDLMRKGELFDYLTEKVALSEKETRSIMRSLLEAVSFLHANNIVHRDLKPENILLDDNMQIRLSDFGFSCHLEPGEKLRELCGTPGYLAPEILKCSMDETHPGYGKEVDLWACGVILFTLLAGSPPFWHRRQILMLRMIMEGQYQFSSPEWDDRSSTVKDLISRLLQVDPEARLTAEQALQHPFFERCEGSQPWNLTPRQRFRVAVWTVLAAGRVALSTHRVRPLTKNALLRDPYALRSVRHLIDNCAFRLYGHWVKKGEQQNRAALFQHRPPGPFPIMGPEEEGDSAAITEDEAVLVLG
- conditionSet: at 1 µM
measuredProperty: inhibition (%)
One number for each entry, in %.

Some molecules with known inhibition results, for comparison:
- itemSmiles: "COc1cccc(-n2ncc3c(N/N=C/c4cccc(F)c4)ncnc32)c1"
  measuredProperty: "inhibition"
  readingUnit: "%"
  dataValue: 1.7
- itemSmiles: "COc1ccc(-c2nn3ncccc3c2-c2ccnc(Nc3ccc(Cl)c(C(F)(F)F)c3)n2)cc1"
  measuredProperty: "inhibition"
  readingUnit: "%"
  dataValue: 5.41
- itemSmiles: "COc1cc2ncn(-c3cc(OCc4ccccc4C(F)(F)F)c(C(N)=O)s3)c2cc1OC"
  measuredProperty: "inhibition"
  readingUnit: "%"
  dataValue: 6.56
- itemSmiles: "O=C1NC(=O)C(c2ccccc2Cl)=C1Nc1cccc(O)c1"
  measuredProperty: "inhibition"
  readingUnit: "%"
  dataValue: 0.71

Switching to the query record.
inhibition measured on O=C1NC(=O)C(N2CCc3ccccc32)=C1c1ccc(Cl)cc1 = 2.26

###

For each of the molecules below, state its inhibition.
- testTarget: Ephrin type-B receptor 4 (Homo sapiens);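 note: reported value is the mean percent inhibition of EPHB4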
- Sequence (whole entry): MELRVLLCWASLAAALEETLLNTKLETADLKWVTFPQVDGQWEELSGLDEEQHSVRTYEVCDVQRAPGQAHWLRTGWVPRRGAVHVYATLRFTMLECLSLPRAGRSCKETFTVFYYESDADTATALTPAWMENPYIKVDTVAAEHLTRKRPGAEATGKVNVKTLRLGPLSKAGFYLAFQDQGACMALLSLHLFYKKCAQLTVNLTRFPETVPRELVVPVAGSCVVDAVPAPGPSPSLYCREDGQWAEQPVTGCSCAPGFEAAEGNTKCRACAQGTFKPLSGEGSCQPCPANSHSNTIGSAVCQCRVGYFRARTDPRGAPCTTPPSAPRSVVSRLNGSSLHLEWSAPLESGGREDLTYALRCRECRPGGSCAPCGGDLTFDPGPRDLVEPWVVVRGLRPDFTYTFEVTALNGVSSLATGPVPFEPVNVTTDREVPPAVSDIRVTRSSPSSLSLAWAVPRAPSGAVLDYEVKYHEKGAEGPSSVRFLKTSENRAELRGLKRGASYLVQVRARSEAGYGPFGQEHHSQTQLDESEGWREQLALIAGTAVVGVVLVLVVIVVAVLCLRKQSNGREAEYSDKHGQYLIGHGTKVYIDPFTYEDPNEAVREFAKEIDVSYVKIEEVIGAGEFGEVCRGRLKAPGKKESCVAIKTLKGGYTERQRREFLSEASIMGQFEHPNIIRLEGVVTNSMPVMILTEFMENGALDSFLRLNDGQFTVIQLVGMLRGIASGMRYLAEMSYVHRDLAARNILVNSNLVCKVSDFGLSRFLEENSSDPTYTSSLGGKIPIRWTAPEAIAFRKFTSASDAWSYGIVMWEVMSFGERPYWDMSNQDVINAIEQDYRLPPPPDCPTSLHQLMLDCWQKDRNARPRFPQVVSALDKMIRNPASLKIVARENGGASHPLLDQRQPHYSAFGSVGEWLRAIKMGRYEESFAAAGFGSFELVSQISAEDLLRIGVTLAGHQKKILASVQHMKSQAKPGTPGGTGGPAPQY
- conditionSet: at 1 µM
One number for each entry, in %.

Examples from the recorded data:
- molecule: "NCc1ccc(-c2nc(-c3ccc(Cl)c(O)c3)c(-c3ccncc3)[nH]2)cc1"
  dataValue: 9.77
- molecule: "NC(=O)c1ccc(-c2nc(-c3ccccn3)c(-c3ccc4c(c3)OCO4)[nH]2)cc1"
  dataValue: 1.95
- molecule: "O=C1Nc2ccc(C(=O)c3ccco3)cc2C1=Cc1cc(Cl)c(O)c(Cl)c1"
  dataValue: 2.52

Please state inhibition for every molecule in the list that follows.
1. COc1cccc(-n2ncc3c(N/N=C/c4cccc(F)c4)ncnc32)c1
2. COc1ccc2cc(-c3c(-c4ccncc4)nc(-c4ccc([S+](C)[O-])cc4)n3C)ccc2c1 (centres undefined)
3. COc1ccc(-c2nn3ncccc3c2-c2ccnc(Nc3ccc(Cl)c(C(F)(F)F)c3)n2)cc1
4. Fc1cccc(COc2ccc(Nc3ncnc4cc(-c5ccc[nH]5)sc34)cc2Cl)c1
5. Cc1cc(O)cc(C)c1/C=C/c1cncc(-c2nn[nH]n2)c1
6. c1cnn2ncc(-c3ccnc(Nc4ccc5c(c4)OCCO5)n3)c2c1
7. NS(=O)(=O)c1ccc(N/N=C2\C(=O)Nc3ccc(C(=O)NCCc4c[nH]cn4)cc32)cc1
8. CS(=O)(=O)CCNCc1ccc(-c2ccc3ncnc(Nc4ccc(OCc5ccccc5)c(Cl)c4)c3c2)o1

[0.63, 6.99, -0.34, -2.14, 46.2, 12.5, 6.29, 2.4]

meta.source: ChEMBL document CHEMBL1961873
